B1: RAD51 (parent)
chain: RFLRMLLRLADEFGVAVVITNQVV

- Variants of: B1
- experimentNotes: protein stability index of a GFP-peptide fusion (GPS, HEK-293T) (PSI 1-6); higher = more stable;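 note: lentivirally expressed fusions sorted by FACS into six bins by GFP to DsRed ratio, PSI derived from sequencing read proportions per bin multiplied by bin number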
- details: c terminus: a fixed tail appended
measuredMetric: protein stability index

Field: example entries. Status: answers known.
- residueChange: "V24N"
  measuredMetric: "protein stability index"
  val: 1.86
- residueChange: "V24E"
  measuredMetric: "protein stability index"
  val: 1.41
- residueChange: "N21Y"
  measuredMetric: "protein stability index"
  val: 2.19
- residueChange: "V24C"
  measuredMetric: "protein stability index"
  val: 2.11
- residueChange: "V17C"
  measuredMetric: "protein stability index"
  val: 1.06
- residueChange: "L7I"
  measuredMetric: "protein stability index"
  val: 2.79
- residueChange: "L7M"
  measuredMetric: "protein stability index"
  val: 1.55
- residueChange: "G14E"
  measuredMetric: "protein stability index"
  val: 1.92
- residueChange: "E12T"
  measuredMetric: "protein stability index"
  val: 1.46
- residueChange: "G14S"
  measuredMetric: "protein stability index"
  val: 1.53

Sample `D11N` ; protein stability index observed: 1.66

For reference, reported protein stability index for `V18I` stands at 1.87

Given item `F2R` , the value recorded as its protein stability index is 1.7
